Each record here notes measured growth.
Test system: SNB-75 CNS
Assay: NCI-60 one-dose screen, 48 h (100 = growth as untreated, 0 = no growth, -100 = all killed)
Details: 10 µM unless noted
The panel holds about 83,000 compounds, 20% with a hit somewhere; the sample as a whole holds those more often. Activity calls are given as the source filed them. The calls were made as follows: active = growth percent below 10; inactive = the rest.

Sample answers from the record:
molecule	readoutType	testResult
NC(=N\N=C/c1ccc(Cl)cc1Cl)/C(N)=N\N=C/c1ccc(Cl)cc1Cl	growth	8.06% (active)
COc1ccc(-c2nc3cc(C(=O)NC4CCCCC4)ccc3n2C2CCCCC2)cc1	growth	91.6% (inactive)
COc1cccc2cc(N(C)c3nc(C)nc4c3CCC4)ccc12	growth	30.5% (inactive)
CCOc1cc(\C=N/N=C(N)/C(N)=N\N=C/c2ccc(O)c(OCC)c2)ccc1O	growth	116% (inactive)
COc1cc2cc(Oc3ccc(NC(=O)Nc4ccc(F)c(C(F)(F)F)c4)cc3)c(C)nc2cc1OCCN1CCCCC1	growth	92.7% (inactive)

Summary for this molecule, CCOC(=O)c1c(C)n2c(=O)cc(C)c3c(OC(C)=O)c(OC(C)=O)cc1c32 : growth is 74.1% (inactive)

Summary for this molecule, COC(=O)c1c(C(=O)OC)c2ccc3c4ncccc4ccc3n2c1C(=O)c1ccc(C)cc1 : growth is 95.2% (inactive)

Summary for this molecule, COc1ccc(N/N=C/c2ccc3c(c2)Sc2ccccc2N3C)cc1 : growth is 73.5% (inactive)

Summary for this molecule, Nc1nc(N)c2c(n1)NC(c1cccc(Nc3ccnc4cc(C(F)(F)F)ccc34)c1)CC(c1ccc(Cl)cc1)=N2 (stereo not given) : growth is 47.9% (inactive)

* * *

Test system: SK-OV-3 ovarian
Test: NCI-60 one-dose screen, 48 h (100 = growth as untreated, 0 = no growth, -100 = all killed)
Settings: 10 µM unless noted
The panel holds about 83,000 compounds, 20% with a hit somewhere; the sample as a whole holds those more often.
Criterion: growth strictly less than 80%. Met: label 1. Not met: label 0.

Solved entries (count: 10):
molecule	labelValue
Cc1cc2c(C(C)C)c(O)c(O)c(/C=N/O)c2c(O)c1-c1c(C)cc2c(C(C)C)c(O)c(O)c(/C=N/O)c2c1O	label 1
COc1ccc(/C(C)=C(\c2ccc(Cl)cc2)c2ccc(OCCCN(C)C)cc2)cc1	label 0
Cc1ccc(C(=O)Nc2ccc(CN3CCN(C)CC3)c(C(F)(F)F)c2)cc1C#Cc1cnc(N)c2ccccc12	label 1
Cc1ccc(C2=Nc3c(N)nc(N)nc3NC(c3cccc(Nc4ccnc5cc(C(F)(F)F)ccc45)c3)C2)cc1 (centres undefined)	label 1
CCOC(=O)C1=CCC(n2cc(F)c(=O)[nH]c2=O)O1 (centres undefined)	label 0
COc1cc(C)cc(-c2c(-c3cc(N4CC(O)C4)nc(-c4cccnc4)n3)cnn2C)c1	label 0
Cc1[nH]c(C(=O)Nc2ccc(C(N)=O)cc2OC(C)C)c(Cl)c1Cl	label 0
CCOC(=O)C1=C(C)N(C)C(=O)N(C)C1c1ccccc1 (centres undefined)	label 0
Cc1cccc(CN(Nc2ccccc2)c2ccccc2)n1	label 0
C(CCCSC1=NCCN1)CCSC1=NCCN1	label 0

I'd appreciate it if you could check whether Cc1nc2c(c(-c3ccccc3)n1)Cc1c(ccc3ccccc13)O2 has growth smaller than 80%.
label 0

I'd appreciate it if you could check whether Cc1oc2ccc(O)c(CN3CCCCCC3)c2c1C(=O)Nc1ccc(C(F)(F)F)cc1 has growth smaller than 80%.
label 1

I'd appreciate it if you could check whether Cc1c2ccncc2c(C)c2c1c1ccccc1n2CCCCCC(=O)O has growth smaller than 80%.
label 0

I'd appreciate it if you could check whether COc1cc2nc3cc([N+](=O)[O-])ccc3c(NCCCNCCO)c2cc1OC has growth smaller than 80%.
label 1

I'd appreciate it if you could check whether CN1CCN(Cc2ccc(NC(=O)c3cc(C#Cc4cnc(N)c5ncccc45)n(C)n3)cc2C(F)(F)F)CC1 has growth smaller than 80%.
label 0

I'd appreciate it if you could check whether Cc1[nH]c(C2CC(c3ccc(C(F)(F)F)c(F)c3)=NN2C)c(C)c1C(=O)NCC(F)(F)F (centres undefined) has growth smaller than 80%.
label 0

I'd appreciate it if you could check whether CCNc1nc(-c2ccc(Cl)c(OC)c2)c(-c2ccnc(NCCNS(=O)(=O)c3ccc(Cl)cc3)n2)s1 has growth smaller than 80%.
label 1

I'd appreciate it if you could check whether C=C(CNCCc1ccc(O)cc1)[C@@H]1CC[C@]2(CO)CC[C@]3(C)[C@H](CC[C@@H]4[C@@]5(C)CCC(N)C(C)(C)[C@@H]5CC[C@]43C)[C@@H]12 (some centres undefined) has growth smaller than 80%.
label 1
